# Protocol Summary: Metabolic stability in rat hepatocytes assessed as intrinsic clearance at 1 uM measured after 2 hrs
# Format: ADME, cell-based, Hepatocyte
# Condition Context: read-out: CLH (converted)
Observed Property: CLint scaled at 1 µM
Could you kindly put the unit after your number?

Task: Endpoint output: CLint scaled at 1 µM of O=C(NC[C@H](c1ccc(Cl)cc1)N1CCOCC1)c1sc(-c2ncccn2)nc1C(F)(F)F . Value?
Result: 80 mL/min/kg

---

Exercise: state measured IC50 for each of the molecules provided.
# Assayed Target: P2X purinoceptor 7 (Mus musculus)
# Sequence (Q9Z1M0 whole entry): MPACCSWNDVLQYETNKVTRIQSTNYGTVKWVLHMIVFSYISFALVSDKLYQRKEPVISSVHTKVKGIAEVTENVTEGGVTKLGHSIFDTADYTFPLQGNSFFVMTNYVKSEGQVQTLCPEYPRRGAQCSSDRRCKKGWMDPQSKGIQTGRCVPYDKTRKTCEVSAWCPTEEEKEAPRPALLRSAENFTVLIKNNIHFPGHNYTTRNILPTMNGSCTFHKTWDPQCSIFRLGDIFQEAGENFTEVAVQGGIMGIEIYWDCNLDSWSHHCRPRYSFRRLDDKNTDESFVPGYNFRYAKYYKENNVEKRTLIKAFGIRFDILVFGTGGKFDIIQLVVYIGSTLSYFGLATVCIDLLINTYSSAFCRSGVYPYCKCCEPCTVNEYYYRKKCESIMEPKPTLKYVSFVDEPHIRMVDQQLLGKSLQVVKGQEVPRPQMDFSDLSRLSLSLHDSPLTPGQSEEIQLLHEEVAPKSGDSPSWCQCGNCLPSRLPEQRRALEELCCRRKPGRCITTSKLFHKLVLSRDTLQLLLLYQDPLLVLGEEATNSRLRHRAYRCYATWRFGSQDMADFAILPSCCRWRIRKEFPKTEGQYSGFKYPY
# Protocol Summary: Antagonist activity at mouse P2X7 receptor expressed in HEK293 cells assessed as inhibition of BzATP-induced calcium-flux measured after 60 mins by FLIPR analysis
Please respond with the number in µM and leave the unit unwritten.

Task: Endpoint output: IC50 of COc1ccc(CC(=O)NC(N/C(=N/C#N)Nc2cccc3ncccc23)C(C)(C)C)cc1OC (stereo unspecified) . Value?
Result: 0.25

Task: Then what about the molecule O=C(NCC1(N2CCN(c3ccccc3)CC2)CCOCC1)c1cccnc1Sc1ccccc1 ?
Result: 0.00065

Task: Then what about the molecule COC[C@H](O)Cn1c(=O)cnn(-c2ccc(Cl)c(C(=O)NCC3(O)CCCCCC3)c2)c1=O [CE-224535] ?
Result: 0.66

Task: Then what about the molecule O=C(Cc1cccc(C(F)(F)F)c1Cl)NC1COc2ncccc21 (stereo unspecified) ?
Result: 0.32

Task: Then what about the molecule O=C(NCC1CCCCCC1)c1cn(CCO)c2ccccc12 ?
Result: 0.24

Task: Then what about the molecule Clc1cccc(-c2nnnn2Cc2cccnc2)c1Cl ?
Result: 2.9

Task: Then what about the molecule O=C(NC[C@H](c1ccc(Cl)cc1)N1CCOCC1)c1sc(-c2ncccn2)nc1C(F)(F)F ?
Result: 0.022

Task: Then what about the molecule O=C(NCC12CC3CC(CC(C3)C1)C2)c1cc(CCCNCCCO)ccc1Cl [AZD9056] ?
Result: 1.7

Task: Then what about the molecule FC(F)(F)c1cccc(-c2nnnn2Cc2cccnc2)c1Cl ?
Result: 0.3

Task: Then what about the molecule CN1C(=O)CC[C@H]1C(=O)NCc1cccc(C(F)(F)F)c1Cl [GSK1482160] ?
Result: 2.3

---

# Protocol Summary: in vitro
# Condition Context: human, liver microsomes
Field 'label' (enum: TRUE / FALSE). Set to TRUE when CLint scaled at 1 h, 1 µM is strictly under 20 mL/min/kg; else FALSE.

Task: Determine whether this molecule shows CLint scaled at 1 h, 1 µM lower than 20 mL/min/kg (ties excluded): Clc1cccc(-c2nnnn2Cc2cccnc2)c1Cl
Result: TRUE

Task: Then what about the molecule CN1C(=O)CC[C@H]1C(=O)NCc1cccc(C(F)(F)F)c1Cl ?
Result: TRUE

Task: Then what about the molecule C[C@H](N/C(=N/C#N)Nc1cccc2ncccc12)c1ccccc1 ?
Result: FALSE

Task: Then what about the molecule O=C(NCC1(N2CCN(c3ccccc3)CC2)CCOCC1)c1cccnc1Sc1ccccc1 ?
Result: FALSE

---

# Assayed Target: UniProtKB Q99572
# Sequence (Q99572 whole entry): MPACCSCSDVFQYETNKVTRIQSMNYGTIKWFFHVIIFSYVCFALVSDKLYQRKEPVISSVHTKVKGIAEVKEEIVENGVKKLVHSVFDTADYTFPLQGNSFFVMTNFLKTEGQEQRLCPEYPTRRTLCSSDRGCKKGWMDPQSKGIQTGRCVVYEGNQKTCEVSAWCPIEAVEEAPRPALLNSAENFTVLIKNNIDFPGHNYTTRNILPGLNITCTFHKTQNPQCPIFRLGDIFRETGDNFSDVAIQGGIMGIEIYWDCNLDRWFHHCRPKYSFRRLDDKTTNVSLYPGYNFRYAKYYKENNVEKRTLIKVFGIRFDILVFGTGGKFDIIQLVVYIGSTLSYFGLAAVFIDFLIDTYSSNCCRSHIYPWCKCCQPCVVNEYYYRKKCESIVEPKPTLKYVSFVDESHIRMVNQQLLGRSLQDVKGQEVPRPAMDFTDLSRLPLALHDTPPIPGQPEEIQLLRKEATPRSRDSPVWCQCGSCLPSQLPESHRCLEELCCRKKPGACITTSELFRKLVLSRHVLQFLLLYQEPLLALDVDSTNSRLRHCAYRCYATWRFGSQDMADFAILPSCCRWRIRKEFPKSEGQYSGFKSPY
# Protocol Summary: Antagonist activity at human P2X7 receptor expressed in HEK293 cells assessed as inhibition of BzATP-induced calcium-flux measured after 60 mins by FLIPR analysis
Exercise: state measured log10 IC50 for each of the molecules provided.
# log10 transformed; quantity=IC50; unit=nM

Task: Endpoint output: log10 IC50 of FC(F)(F)c1cccc(-c2nnnn2Cc2cccnc2)c1Cl . Value?
Result: 1.76

Task: Then what about the molecule O=C(NCC1(N2CCN(c3ccccc3)CC2)CCOCC1)c1cccnc1Sc1ccccc1 ?
Result: 1.54

Task: Then what about the molecule Clc1cccc(-c2nnnn2Cc2cccnc2)c1Cl ?
Result: 3.32

Task: Then what about the molecule O=C(Cc1cccc(C(F)(F)F)c1Cl)NC1COc2ncccc21 (centres undefined) ?
Result: 0.74

Task: Then what about the molecule CN1C(=O)CC[C@H]1C(=O)NCc1cccc(C(F)(F)F)c1Cl [GSK1482160] ?
Result: 1.30

Task: Then what about the molecule O=C(NCC12CC3CC(CC(C3)C1)C2)c1cc(CCCNCCCO)ccc1Cl [AZD9056] ?
Result: 0.54

Task: Then what about the molecule COC[C@H](O)Cn1c(=O)cnn(-c2ccc(Cl)c(C(=O)NCC3(O)CCCCCC3)c2)c1=O [CE-224535] ?
Result: -0.12

Task: Then what about the molecule O=C(NCC1CCCCCC1)c1cn(CCO)c2ccccc12 ?
Result: 1.86

Task: Then what about the molecule COc1ccc(CC(=O)NC(N/C(=N/C#N)Nc2cccc3ncccc23)C(C)(C)C)cc1OC (centres undefined) ?
Result: 1.91
